- Tested on: E34 (patient-derived glioblastoma stem cells of proneural subtype)
- Test Details: phenotypic distance (Euclidean, principal components) from DMSO controls (arbitrary units); higher = stronger morphological change
- Condition Summary: 4.1 nM; exposure time: 72 h
Reported phenotypic distance values follow for various compounds
Keep it simple and answer with nothing but the number.

Record NCc1ccccc1CC(=O)N[C@@H]1C(=O)N2C(C(=O)O)=C(CSc3nnnn3CC(=O)O)CS[C@H]12 [Ceforanide] , field phenotypic distance: 0.618

Record CCOC(=O)OC(C)OC1=C(C(=O)Nc2ccccn2)N(C)S(=O)(=O)c2ccccc21 (configuration not stated) [Ampiroxicam] , field phenotypic distance: 0.789

---

- Test system: E57 (patient-derived glioblastoma stem cells of mesenchymal subtype)
- Test Details: phenotypic distance (Euclidean, principal components) from DMSO controls (arbitrary units); higher = stronger morphological change
- Condition Summary: 1000 nM; exposure time: 72 h
Counter-ions that a name gives are not always drawn.
Reported phenotypic distance values follow for various molecules
Keep it simple and answer with nothing but the number.

Record COc1cc2c(c(OC)c1OC)-c1ccc(OC)c(=O)cc1[C@@H](NC(C)=O)CC2 [Colchicine] , field phenotypic distance: 4.61

Record Oc1ccc(OCc2ccccc2)cc1 [Monobenzone] , field phenotypic distance: 0.736

Record CCCCCCC[N+](CC)(CC)CCCCc1ccc(Cl)cc1 [Clofilium tosylate] , field phenotypic distance: 0.764

Record CCN1CCN(C(=O)Cc2ccc(Nc3ncc(F)c(Nc4ccc(C(=O)Nc5ccccc5Cl)cc4)n3)cc2)CC1 [Aurora-A Inhibitor I] , field phenotypic distance: 3.49

Record C#C[C@]1(O)CC[C@H]2[C@@H]3CCc4cc(OC5CCCC5)ccc4[C@H]3CC[C@@]21C [Quinestrol] , field phenotypic distance: 0.7

---

- Tested on: E13 (patient-derived glioblastoma stem cells of classical subtype)
- Test Details: phenotypic distance (Euclidean, principal components) from DMSO controls (arbitrary units); higher = stronger morphological change
- Condition Summary: 3000 nM; exposure time: 72 h
Structures can show the parent of a compound that is named as a salt.
Observable: phenotypic distance
Keep it simple and answer with nothing but the number.

Some solved entries appear below for comparison.
CC[n+]1c(/C=C/C=C2/N(C)c3ccccc3C2(C)C)sc2ccccc21 : 3.71
CN1CCC(NC(=O)c2cc(-c3c(O)cc(O)cc3Oc3ccc([N+](=O)[O-])cc3)on2)CC1 [NMS-E973] : 5.62
Cc1cc(CN)cc(C)c1NC(=O)c1ccc(-c2cc(Cl)ccc2Cl)o1 : 1.34
N=C(N)NCc1cccc(I)c1 [Iobenguane sulfate] : 0.796

Proceed to the following item.
Record CC(C)C[C@H](NC(=O)[C@H](Cc1ccccc1)C[C@@H](O)[C@H](Cc1ccccc1)NC(=O)OC(C)(C)C)C(=O)N[C@@H](Cc1ccccc1)C(N)=O [L-685,458] , field phenotypic distance: 0.881

---

- Test system: E57
- Test Details: surviving fraction (nuclei count normalised to DMSO); higher = more cells surviving (less toxic)
- Condition Summary: 3000 nM; exposure time: 72 h
Structures can show the parent of a compound that is named as a salt.
Observable: surviving fraction
Keep it simple and answer with nothing but the number.

Some solved entries appear below for comparison.
C[C@H](NC(=O)[C@@H](O)c1cc(F)cc(F)c1)C(=O)N[C@@H]1C(=O)N(C)c2ccccc2-c2ccccc21 : 0.931
C=C(C)[C@H]1Cc2c(ccc3c2O[C@@H]2COc4cc(OC)c(OC)cc4[C@@H]2C3=O)O1 : 0.188
CCn1cc(C(=O)O)c(=O)c2cc(F)c(N3CCNCC3)nc21 : 0.959
O=C1c2c(O)ccc(O)c2C(=O)c2c(NCCNCCO)ccc(NCCNCCO)c21 : 0.17
CNc1ccc2oc(C[C@H]3O[C@@]4(CC[C@H]3C)O[C@H]([C@H](C)C(=O)c3ccc[nH]3)[C@H](C)C[C@H]4C)nc2c1C(=O)O : 0.0336

Record C[C@@H]1CN([C@H]2CC[C@](C#N)(c3ccc(F)cc3)CC2)CC[C@]1(C(=O)O)c1ccccc1 [Levocabastine hydrochloride] , field surviving fraction: 0.994

Record C=C[C@H]1CN2CC[C@H]1C[C@@H]2[C@@H](O)c1ccnc2ccc(OC)cc12 [Quinidine hydrochloride monohydrate] , field surviving fraction: 1.12

Record CCCCCC[C@H]1C(=O)O[C@H](C)[C@H](NC(=O)c2cccc(NC=O)c2O)C(=O)O[C@@H](C)[C@@H]1OC(=O)CC(C)C [Antimycin A] , field surviving fraction: 0.466

Record O=c1[nH]c(=O)n([C@H]2C[C@H](O)[C@@H](CO)O2)cc1I , field surviving fraction: 0.867

Record CCCCC(CC)CNC(=N)NC(=N)NCCCCCCNC(=N)NC(=N)NCC(CC)CCCC (centres undefined) [Alexidine dihydrochloride] , field surviving fraction: 0.00967

---

- Tested on: E13
- Test Details: phenotypic distance (Euclidean, principal components) from DMSO controls (arbitrary units); higher = stronger morphological change
- Condition Summary: 333.3 nM; exposure time: 72 h
Structures can show the parent of a compound that is named as a salt.
Observable: phenotypic distance
Keep it simple and answer with nothing but the number.

Some solved entries appear below for comparison.
Cc1ncc(CO)c(CO)c1O [Pyridoxine hydrochloride] : 0.677
CN[C@@H](C)C(=O)N[C@H](C(=O)N1CCC[C@H]1C(=O)N[C@H]1c2ccccc2C[C@H]1OCC#CC#CCO[C@@H]1Cc2ccccc2[C@@H]1NC(=O)[C@@H]1CCCN1C(=O)[C@@H](NC(=O)[C@H](C)NC)C1CCCCC1)C1CCCCC1 : 1.39
NC(=O)c1cccc2cn(-c3ccc([C@@H]4CCCNC4)cc3)nc12 : 1.62
Cn1ncnc1[C@H]1c2n[nH]c(=O)c3cc(F)cc(c23)N[C@@H]1c1ccc(F)cc1 : 3.55
CC[n+]1c(/C=C/C=C2/N(C)c3ccccc3C2(C)C)sc2ccccc21 : 3.71
CN(C)CCN(Cc1ccc(Cl)cc1)c1ccccn1 [Chloropyramine hydrochloride] : 0.745
CC(C)CC(=O)N[C@H](C(=O)N[C@H](C(=O)N[C@@H](CC(C)C)[C@@H](O)CC(=O)N[C@@H](C)C(=O)N[C@@H](CC(C)C)[C@@H](O)CC(=O)O)C(C)C)C(C)C : 0.565
COc1cc2c(cc1O)CC[C@@H]1[C@@H]2CC[C@]2(C)[C@@H](O)CC[C@@H]12 : 0.958

Record CC[N+](CC)(CC)CCOc1ccc(/C=C/c2ccccc2)cc1 , field phenotypic distance: 1.65

Record C[C@@H]1CN([C@H]2CC[C@](C#N)(c3ccc(F)cc3)CC2)CC[C@]1(C(=O)O)c1ccccc1 [Levocabastine hydrochloride] , field phenotypic distance: 0.491

Record CC(C)C[C@@H](C(=O)N[C@H](C(=O)OC1CCCC1)c1ccccc1)[C@H](O)C(=O)NO , field phenotypic distance: 1.39

---

Reported phenotypic distance values follow for various molecules
- System: E31 (patient-derived glioblastoma stem cells of proneural subtype)
- Test Details: phenotypic distance (Euclidean, principal components) from DMSO controls (arbitrary units); higher = stronger morphological change
- Condition Summary: 1000 nM; exposure time: 72 h
Counter-ions that a name gives are not always drawn.
Keep it simple and answer with nothing but the number.

Some solved entries appear below for comparison.
Nc1ncn([C@@H]2O[C@H](CO)[C@@H](O)[C@H]2O)c(=O)n1 : 1.85
O=C(/C=C\n1cnc(-c2cc(C(F)(F)F)cc(C(F)(F)F)c2)n1)NNc1cnccn1 [Selinexor] : 2.55
CCC(C)(C)c1ccc(CC(C)CN2C[C@@H](C)O[C@@H](C)C2)cc1 (stereo partly drawn) [Amorolfine hydrochloride] : 1.35
CC(=O)OC[C@H]1O[C@@H]([S-])[C@H](OC(C)=O)[C@@H](OC(C)=O)[C@@H]1OC(C)=O.CCP(CC)CC.[Au+] : 1.4
CC(C)CC(=O)N[C@H](C(=O)N[C@H](C(=O)N[C@@H](CC(C)C)[C@@H](O)CC(=O)N[C@@H](C)C(=O)N[C@@H](CC(C)C)[C@@H](O)CC(=O)O)C(C)C)C(C)C : 0.799

Record CC(=O)O[C@@]12CO[C@@H]1C[C@H](O)[C@@]1(C)C(=O)[C@H](O)C3=C(C)[C@@H](OC(=O)[C@H](O)[C@@H](NC(=O)OC(C)(C)C)c4ccccc4)C[C@@](O)([C@@H](OC(=O)c4ccccc4)[C@H]21)C3(C)C , field phenotypic distance: 4.14

Record CC(C)C[C@@H](C(=O)N[C@H](C(=O)OC1CCCC1)c1ccccc1)[C@H](O)C(=O)NO , field phenotypic distance: 1.28

Record CC(C)C(=O)OCC(=O)[C@@]12O[C@H](C3CCCCC3)O[C@@H]1C[C@H]1[C@@H]3CCC4=CC(=O)C=C[C@]4(C)[C@H]3[C@@H](O)C[C@@]12C [Ciclesonide] , field phenotypic distance: 3.27

---

- Test system: E28 (patient-derived glioblastoma stem cells of classical subtype)
- Test Details: surviving fraction (nuclei count normalised to DMSO); higher = more cells surviving (less toxic)
- Condition Summary: 4.1 nM; exposure time: 72 h
Structures can show the parent of a compound that is named as a salt.
Observable: surviving fraction
Keep it simple and answer with nothing but the number.

Some solved entries appear below for comparison.
CC(=O)CC(c1ccc([N+](=O)[O-])cc1)c1c(O)c2ccccc2oc1=O (configuration not stated) : 0.905
CN(C)CCN(Cc1ccc(Cl)cc1)c1ccccn1 [Chloropyramine hydrochloride] : 1.1
Nc1nc2n[nH]nc2c(=O)[nH]1 : 1.08
CCC(=O)OCC(=O)[C@@]1(OC(=O)CC)[C@H](C)C[C@H]2[C@H]3[C@H]([C@@H](O)C[C@@]21C)[C@@]1(C)C=CC(=O)C=C1C[C@H]3Cl [Alclometasone dipropionate] : 1.25
CC[C@@]1(O)C(=O)OCc2c1cc1n(c2=O)Cc2cc3c(CN(C)C)c(O)ccc3nc2-1 : 0.408
CNc1ccc2oc(C[C@H]3O[C@@]4(CC[C@H]3C)O[C@H]([C@H](C)C(=O)c3ccc[nH]3)[C@H](C)C[C@H]4C)nc2c1C(=O)O : 1.07

Proceed to the following item.
Record OC[C@H]1O[C@@H](Oc2ccc(O)cc2)[C@H](O)[C@@H](O)[C@@H]1O , field surviving fraction: 1.1
